- System: TO-3-N3 (biotin conjugate)
- ASSAY_NOTES: pull-down binding Z-score (relative to library population); higher = stronger binding
- MEASUREMENT_PARAMETERS: RNA library: Library-2
PROPERTY_LABEL: pull-down binding Z-score
Lab note: write the figure by itself, no unit.

Look over these answered cases.
BIOSEQUENCE | EXPERIMENTAL_SYSTEM | pull-down binding Z-score
ACCACUGUGAAGACAGUAAAAUGUACAGUGGU [hsa-mir-597] | TO-3-N3 (biotin conjugate) | -0.324
GGGCCAUGUCUGUGAGGGCCCA [hsa-mir-4294] | TO-3-N3 (biotin conjugate) | -0.261
CUUUUAGAGUAAUUGUGAAACUGUUUUUCAAAG [hsa-mir-562] | TO-3-N3 (biotin conjugate) | -0.531
GUAGAUUUUAUGUCAC [hsa-mir-892b] | TO-3-N3 (biotin conjugate) | -0.000191
GCUGCCAUCUCCCACUGGCUGC [hsa-mir-4736] | TO-3-N3 (biotin conjugate) | -0.569

Lookup: Look up pull-down binding Z-score with TO-3-N3 (biotin conjugate) for this sequence: GGCAGCGAGCC [IAV_invivo_NP_5_Motif_25+IAV_invivo_NP_5_Motif_25]
Found: -0.756

Lookup: Look up pull-down binding Z-score with TO-3-N3 (biotin conjugate) for this sequence: AUUACUGCAAAAUGGUAUGAAUGGACGUACCAUAUUGGGUAGU [DMSMaPseq_invitro_SARS-CoV-2_Motif_194]
Found: 0.151

Lookup: Look up pull-down binding Z-score with TO-3-N3 (biotin conjugate) for this sequence: GCGUCACGUGCACCCAAGUGACGC [hsa-mir-6786]
Found: 0.576

Lookup: Look up pull-down binding Z-score with TO-3-N3 (biotin conjugate) for this sequence: GUUAUAAAUGGAGACAGGUGGUUUCUCAAUCGAUUUACCACAACUCUUAAUGAC
Found: -0.728

Lookup: Look up pull-down binding Z-score with TO-3-N3 (biotin conjugate) for this sequence: CUCCAGCACGGAG [IAV_invivo_PB2_1_Motif_21+IAV_invivo_PB2_1_Motif_21]
Found: -0.457
